Value source: patent US7084127B2

Entries and their Emax
Biological target: human adenosine A2A receptors expressed in CHO cells (Homo sapiens, UniProt P29274)
Construct: expressed in transfected cells; host or cells: CHO cells
Sequence (P29274 whole entry): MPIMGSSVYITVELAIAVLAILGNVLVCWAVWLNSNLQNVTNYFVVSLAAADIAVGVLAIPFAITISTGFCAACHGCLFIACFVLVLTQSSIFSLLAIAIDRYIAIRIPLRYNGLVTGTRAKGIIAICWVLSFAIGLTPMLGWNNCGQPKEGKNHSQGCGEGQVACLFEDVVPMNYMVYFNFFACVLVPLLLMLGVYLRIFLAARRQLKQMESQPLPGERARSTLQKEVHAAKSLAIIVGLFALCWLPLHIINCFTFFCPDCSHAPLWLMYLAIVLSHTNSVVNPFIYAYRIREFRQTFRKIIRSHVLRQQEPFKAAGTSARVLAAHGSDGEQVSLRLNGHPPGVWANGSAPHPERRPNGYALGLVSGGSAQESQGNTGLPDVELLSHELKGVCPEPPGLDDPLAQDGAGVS
Assay: cAMP assay A2A (stimulation of cAMP production)
Assay type: cell-based
Conditions: CHO; read-out: Emax (%) A2A
observed property: Emax (%)

1. CC(C)CC=NNc1nc(N)c2ncn([C@@H]3O[C@H](CSC(C)C)[C@@H](O)[C@H]3O)c2n1 [Compound 48]    56
2. CC(C)CC=NNc1nc(N)c2ncn([C@@H]3O[C@H](CO)[C@@H](O)[C@H]3O)c2n1 [Compound 3]    92
3. CCCSC[C@H]1O[C@@H](n2cnc3c(N)nc(NN=CCC(C)C)nc32)[C@H](O)[C@@H]1O [Compound 47]    126
4. CSC[C@H]1O[C@@H](n2cnc3c(N)nc(NN=CCC(C)C)nc32)[C@H](O)[C@@H]1O [Compound 45]    44
5. CCSC[C@H]1O[C@@H](n2cnc3c(N)nc(NN=CCC(C)C)nc32)[C@H](O)[C@@H]1O [Compound 46]    101
